Test system: MCF7 breast
Experiment: NCI tumour cell line growth inhibition, 48 h
As shown below, each of these compounds has a reported TGI value.

// worked examples, TGI included
Cc1cc(N(CC(C)Br)CC(C)Br)ccc1N=Nc1ccccc1C(=O)O (stereo not given); 7.67 µM
O=NNc1ccc2ccccc2n1; > 100 µM
CN(/N=C/c1ccc(C(=O)O)cc1)C1=NCCCCN1; > 100 µM
CCCOC(=O)N[C@H]1CCc2c(Cl)c(OC)c(OC)c(OC)c2-c2ccc(SC)c(=O)cc21; 13.1 µM
Cc1cc(C)c2c(=O)cc(-c3cccc4ccccc34)[nH]c2n1; > 100 µM
Cc1ccc(C(=O)O)c(/C=C2\Cc3ccc(C)cc3C2=O)c1; > 100 µM
COc1ccc2c(c1)/C(=C\c1c(Cl)[nH]c3cc(C)c(OC)cc13)C(=O)N2; 16.7 µM
COc1cccc2c1C(=N)c1c(O)c3c(c(O)c1C2=O)C[C@@](O)(C(C)=O)C[C@@H]3O[C@H]1C[C@H](N)[C@H](O)[C@H](C)O1; 5.2 µM

// query Entry under review: `CC1(C)[C@@H]2CC[C@]1(C)[C@H](OC(=O)CSC#N)C2` . Reported TGI?
// result > 100 µM

====

Test system: CAKI-1 renal
Assay: NCI tumour cell line growth inhibition, 48 h
As shown below, each of these compounds has a reported TGI value.
The figure you give is taken to be in µM; do not add the unit.

// worked examples, TGI included
CCCCCCCCn1ccc2cc(NC(=O)Cn3cc(CN4CCCCCC4)nn3)ccc21; 2.89
CCCC(C)c1ccc(OCCCCCCN2CCNCC2)cc1 (stereo unspecified); 4.45
COc1ccc(C2=C[C@]3(O)CCCN3C[C@@H]2c2ccc(OC)c(OC)c2)cc1; 0.00162
CCOC(=O)/C=C(\C(=O)OCC)n1cc(C)c(=O)n(Cc2cn(CCCCOC(C)=O)nn2)c1=O; 10.4

Switching to the query record.
// query Provide value of TGI for this record tested with CAKI-1 renal: `NC(N)=NS(=O)(=O)c1ccc(NNc2c3ccccc3nc3ccccc23)cc1`
// result 55.1

====

As shown below, each of these compounds has a reported GI50 value.
System: MCF7 breast
Assay: NCI tumour cell line growth inhibition, 48 h

// worked examples, GI50 included
Cc1cn(-c2cc(NC(=O)c3cccc(C#Cc4cccc5[nH]nc(N)c45)c3)cc(C(F)(F)F)c2)cn1; 3600 nM
CC(=O)OC1OC([C@H]2c3cccc(O)c3C(=O)c3c(O)cc(C)cc32)C(O)C(O)C1O (some centres not stated); 287 nM
N[C@H](C(=O)O)[C@@H]1CC(Cl)=NO1; 4770 nM
Cn1c(Cl)c(/C=C2/C(=O)Nc3ccccc32)c2ccccc21; 198 nM
CCN1C(=O)/C(=C/c2c(Cl)[nH]c3cc(C)c(OC)cc23)c2ccccc21; 409 nM
CC1(C)N=C(N)N=C(N)N1c1ccc(CCC(=O)Nc2ccc(S(=O)(=O)F)cc2)c(Cl)c1; 515 nM

Switching to the query record.
// query Entry under review: `CCCCCCCCn1ccc2cc(NC(=O)Cn3cc(CN4CCCCCC4)nn3)ccc21` . Reported GI50?
// result 1830 nM

====

Test system: A549 NSCLC
Experiment: NCI tumour cell line growth inhibition, 48 h
Readout type: TGI (µM)
The figure you give is taken to be in µM; do not add the unit.

// worked examples, TGI included
CC1(C)C2CCC1(C)C(N/C(Sc1ccccc1)=C(/C(Cl)=C(Cl)Cl)[N+](=O)[O-])C2 (stereo not given); 45.9
CC(C)CNc1nc(-c2ccccc2Cl)nc2ccccc12; 33.5

Switching to the query record.
// query Provide value of TGI for this record tested with A549 NSCLC: O=C1C=CC(=O)C2C1C1(Cl)C(Cl)=C(Cl)C2(Cl)C1(Cl)Cl (stereo not given)
// result 26.5

====

Tested on: SK-MEL-28 melanoma
Experiment: NCI tumour cell line growth inhibition, 48 h
Readout type: TGI

// worked examples, TGI included
COc1cc2c(cc1O)c(O)cc1c3cc(OC)c(OC)cc3c[n+](C)c21; > 100 µM
COc1ccc2c(c1)/C(=C\c1c(Cl)[nH]c3cc(C)c(OC)cc13)C(=O)N2; 29 µM
CCN(CC)CCNC(Cc1ccccc1)c1ccc(OCc2ccccc2)cc1 (centres undefined); 4.03 µM
Cc1cc(Cl)ccc1OCC(=O)Nc1nc2c(Cl)cccc2s1; > 100 µM
Nc1n[nH]c2cccc(C#Cc3cccc(NC(=O)c4cccc(C(F)(F)F)c4)c3)c12; 12.5 µM

// query Entry under review: O=C1C=CC(=O)C2C1C1(Cl)C(Cl)=C(Cl)C2(Cl)C1(Cl)Cl (centres undefined) . Reported TGI?
// result 21.8 µM

====

System: OVCAR-3 ovarian
Test: NCI tumour cell line growth inhibition, 48 h
As shown below, each of these molecules has a reported TGI value.

// worked examples, TGI included
Cc1cn(C2CC(OC(=O)c3ccc(Cl)cc3)C(COC(=O)c3ccc(Cl)cc3)O2)c(=O)[nH]c1=O (stereo not given); > 100 µM
CC(=O)C(C(c1ccccc1)N1CCOCC1)N1CCOCC1 (stereo not given); > 100 µM
O=C1CS(=O)(=O)C(c2cccc(Oc3ccccc3)c2)N1c1ccc(Cl)cc1 (stereo not given); > 100 µM

// query Provide value of TGI for this record tested with OVCAR-3 ovarian: `CN(C)/C=C/C(=CC=[N+](C)C)/C=C/N(C)C`
// result > 100 µM

// query Next entry: CC(=O)OCC1OC(N2C(c3ccccc3)=CC(c3cccs3)C(C#N)=C2S)C(OC(C)=O)C(OC(C)=O)C1OC(C)=O (stereo not given)
// result > 100 µM

====

As shown below, each of these compounds has a reported TGI value.
System: DMS 114 small cell lung
Assay: NCI tumour cell line growth inhibition, 48 h

// worked examples, TGI included
CC1(O)C(C)(O)C2(C)O[Te]3(OC12C)OC1(C)C(C)(O)C(C)(O)C1(C)O3 (stereo unspecified); 54.4 µM
Cc1n(CC(C)C)c2c([n+]1C)C(=O)c1ccccc1C2=O; < 0.0255 µM

// query Entry under review: O=C(Nc1ccc(C(F)(F)F)cc1[N+](=O)[O-])C(=O)C1NC(=S)NC1=O (stereo unspecified) . Reported TGI?
// result > 100 µM

// query Next entry: `COc1cc(NCC(C#N)C#N)ccc1N=Nc1ccc(Cl)cc1`
// result 48.2 µM

// query Next entry: Cc1ccc(C)c(NC(=O)CC2Sc3ccccc3NC2=O)c1 (stereo unspecified)
// result > 100 µM

// query Next entry: `CC(=O)c1ccc(NC(=O)/C(CC(=O)c2sc(-c3cccnc3)nc2C)=N/NC(N)=O)cc1`
// result > 100 µM

// query Next entry: CC(=O)C1C(c2ccccc2)C2(C)OC(=O)C(C#N)C12C (stereo unspecified)
// result > 100 µM

// query Next entry: CCOC1C(Br)Cn2c(=O)c3cc4ccccc4cc3c(=O)n2C1C (stereo unspecified)
// result > 100 µM

// query Next entry: `Cc1ccc2c(ccc(/C=C/c3ccc(O)c4ncccc34)[n+]2C)c1`
// result 4.28 µM

// query Next entry: `CNC(=O)OCc1nc(SSC(C)(C)C)n(C)c1COC(=O)NC`
// result 4.15 µM

// query Next entry: `O=C(c1ccccc1)c1ccc2n[se]nc2c1`
// result 60 µM

====

System: MDA-MB-231 breast
Test: NCI tumour cell line growth inhibition, 48 h; in the data active = GI50 below about 0.43 µM; inactive = the rest
Lab note: assign the record to one of active, inactive

Answered examples (2):
Nc1ncc(-c2cnn(C3CCNCC3)c2)cc1-c1nc2cc(Cl)ccc2o1; inactive
COc1ccc2c(c1)C(=O)/C(=C/c1cccc(OCC(=O)c3ccccc3)c1)O2; inactive

Now consider the entry below.
// query Hi, do you know how CC(=O)OC1OC([C@H]2c3cccc(O)c3C(=O)c3c(O)cc(C)cc32)C(O)C(O)C1O (some centres undefined) came out in this test?
// result active

====

As shown below, each of these molecules has a reported TGI value.
Test system: HOP-62 NSCLC
Assay: NCI tumour cell line growth inhibition, 48 h

// worked examples, TGI included
COc1cc(C=O)c(-c2c(C=O)ccc3c2OCO3)c(OC)c1OC; > 100 µM
N#CCC(=O)N/N=C1/C(=O)N(c2ccc(Cl)cc2)C(=O)C(=O)C1c1nc2ccccc2s1 (stereo not drawn); > 100 µM
Cc1cn(-c2cc(NC(=O)c3cccc(C#Cc4cccc5[nH]nc(N)c45)c3)cc(C(F)(F)F)c2)cn1; 18.3 µM
Cc1ccc(C(=O)N/N=C(\N=Nc2cccc([N+](=O)[O-])c2)c2ccc(N(CCC#N)CCC#N)cc2C)cc1; 79.7 µM
CCOc1cc(C(C)(C)C)ccc1C1=N[C@H](c2ccc(Cl)cc2)[C@H](c2ccc(Cl)cc2)N1C(=O)N1CCN(CC#Cc2cccc3c2CN([C@@H]2CCC(=O)NC2=O)C3=O)CC1; 16.3 µM
C#CC1(O)C(COP(=O)(O)OCC(COP(=O)(O)OCC2OC(n3cc(F)c(=O)[nH]c3=O)CC2O)OCCCCCCCCCCCCCCCCCC)OC(n2ccc(N)nc2=O)C1O (stereo not drawn); 10.6 µM
C=CCn1c(N)c(C#N)c(C#N)c1CCC; > 100 µM

Switching to the query record.
// query Entry under review: CC1(O)C(C)(O)C2(C)O[Te]3(OC12C)OC1(C)C(C)(O)C(C)(O)C1(C)O3 (stereo not drawn) . Reported TGI?
// result > 100 µM
